Target: Bile acid receptor (Homo sapiens)
Test: Agonist activity at human FXR assessed as SRC1 peptide interaction with receptor ligand binding domain by FRET assay relative to GW-4064
Entries whose %max is below 80% take Criterion met; entries at or above 80% take Criterion not met.

structure.smiles.string | tested.system | label.value
CC(C)c1onc(COc2ccc(Cl)c(Cl)c2)c1COc1ccc(/C=C/c2cccc(C(=O)O)c2)c(Cl)c1 | Bile acid receptor (Homo sapiens) | Criterion met
CC(C)c1onc(COc2c(Cl)cc(Cl)cc2Cl)c1COc1ccc(/C=C/c2cccc(C(=O)O)c2)c(Cl)c1 | Bile acid receptor (Homo sapiens) | Criterion not met
Cc1cccc(Cl)c1OCc1noc(C(C)C)c1COc1ccc(/C=C/c2cccc(C(=O)O)c2)c(Cl)c1 | Bile acid receptor (Homo sapiens) | Criterion not met
CC(C)c1onc(COc2ccc(Cl)cc2Cl)c1COc1ccc(/C=C/c2cccc(C(=O)O)c2)c(Cl)c1 | Bile acid receptor (Homo sapiens) | Criterion met
CC(C)c1onc(CSc2c(Cl)cccc2Cl)c1COc1ccc(/C=C/c2cccc(C(=O)O)c2)c(Cl)c1 | Bile acid receptor (Homo sapiens) | Criterion not met

Answer whether the molecule O=C(O)c1cccc(/C=C/c2ccc(OCc3c(-c4c(Cl)cccc4Cl)noc3C3CCC3)cc2Cl)c1 has %max strictly less than 80% Criterion met

Input CC(C)c1onc(COc2c(F)cccc2Cl)c1COc1ccc(/C=C/c2cccc(C(=O)O)c2)c(Cl)c1 ; condition: %max strictly below 80%. Does it hold? Criterion not met

Quick check: does CC(C)c1onc(CNc2c(Cl)cccc2Cl)c1COc1ccc(/C=C/c2cccc(C(=O)O)c2)c(Cl)c1 have %max under 80%? Criterion not met

In plain terms, does CC(C)c1onc(CSc2nnnn2C)c1COc1ccc(/C=C/c2cccc(C(=O)O)c2)c(Cl)c1 come in under 80% for %max? Criterion met
